- protocol text: Cytotoxicity against human A549 cells assessed as cell killing measured after 24 to 48 hrs by MTT assay
- Assay type: toxicity, cell-based
- assay setup: time 24-48 hrs, read-out: LD50 (the source's name)
measurement label: CC50 (µg/mL)

mol_smiles=O=C(N/N=C/c1cc(Br)ccc1O)c1cncc(Br)c1 measurement_label=CC50 units_text=µg/mL result_qualifier== measured_result=4
mol_smiles=O=C(N/N=C/c1ccc(Br)cc1O)c1csc(Br)c1 measurement_label=CC50 units_text=µg/mL result_qualifier=> measured_result=32
mol_smiles=O=C(N/N=C/c1cc(Br)ccc1O)c1cc(Br)c(Br)o1 measurement_label=CC50 units_text=µg/mL result_qualifier== measured_result=32
mol_smiles=O=C(N/N=C/c1ccc(Br)cc1O)c1ccc(Br)o1 measurement_label=CC50 units_text=µg/mL result_qualifier=> measured_result=32
mol_smiles=O=C(N/N=C/c1cc(Br)ccc1O)c1cc(Br)c(Br)s1 measurement_label=CC50 units_text=µg/mL result_qualifier== measured_result=32
mol_smiles=O=C(N/N=C/c1cc(Br)ccc1O)c1ccc(Br)o1 measurement_label=CC50 units_text=µg/mL result_qualifier=> measured_result=32
mol_smiles=O=C(N/N=C/c1cc(Br)cc(Br)c1O)c1ccc(Br)o1 measurement_label=CC50 units_text=µg/mL result_qualifier== measured_result=16
mol_smiles=O=C(N/N=C/c1ccc(Br)cc1O)c1cncc(Br)c1 measurement_label=CC50 units_text=µg/mL result_qualifier=> measured_result=32
mol_smiles=O=C(N/N=C/c1c(O)ccc2ccccc12)c1ccc(C(F)(F)F)o1 measurement_label=CC50 units_text=µg/mL result_qualifier== measured_result=0.12
mol_smiles=O=C(N/N=C/c1c(O)ccc2ccccc12)c1ccc(Br)o1 measurement_label=CC50 units_text=µg/mL result_qualifier== measured_result=32
mol_smiles=O=C(N/N=C/c1cc(Br)cc(Br)c1O)c1cc(Br)c(Br)s1 measurement_label=CC50 units_text=µg/mL result_qualifier=> measured_result=32
mol_smiles=O=C(N/N=C/c1cc(Br)cc(Br)c1O)c1csc(Br)c1 measurement_label=CC50 units_text=µg/mL result_qualifier== measured_result=16

Measured values drawn from ChEMBL document CHEMBL5523691 for this set.
